Biological target: T1, Abp1, P15891
T1 sequence (P15891 535-592, looked up): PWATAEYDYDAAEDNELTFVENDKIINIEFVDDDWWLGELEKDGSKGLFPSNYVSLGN
Test: SPOT array
Conditions: median of control spots 935
observed.property: SPOT intensity

Use these answered entries as a reference point.
TTNRGPPPLPPRANV
48
RTIRKLPLMSLSEYF
13

(P) GRSRLFPHSPLGRSS
(Q) GDHPKGPPPPPPPPD
(R) QLMKNLPKIPLLNDI
*Q* Give the ascending ranking of the items by reported SPOT intensity. Rank the items, then write their labels in that order.
*A* Q, P, R

(1) QFDLKMPSKPIHNLK
(2) ANNQGPPNLPARDKS
*Q* When the recorded SPOT intensity values are compared, which is smaller: that of 1 or that of 2 ? // caller expects the label of the chosen entry
*A* 2
(2: 0, 1: 41)
